# System: multidrug-resistant HIV-1 clinical isolate, patient 1
# Procedure summary: PHA-PBMC assay, p24 Gag protein production
# Format: cell-based
# Condition summary: Human immunodeficiency virus 1; Patient/Isolate code 1; PHA-PBMC, p24
Readout kind: pIC50
Give bare numbers, as −log10 of the molar value.

Prompt: Report pIC50 for CC(C)(C)NC(=O)[C@@H]1C[C@@H]2CCCC[C@@H]2CN1C[C@@H](O)[C@H](Cc1ccccc1)NC(=O)[C@H](CC(N)=O)NC(=O)c1ccc2ccccc2n1 [SAQ, Saquinavir] please.
Completion: 6.54

Now look at this entry.
Prompt: Tell me the measured pIC50 of CC(C)CN(C[C@@H](O)[C@H](Cc1ccccc1)NC(=O)O[C@H]1CCOC1)S(=O)(=O)c1ccc(N)cc1 [AMV, Amprenavir] , please.
Completion: 6.54

meta.source: patent US9889115B2
